MEASUREMENT_DESCRIPTION: NCI Yeast Anticancer Drug Screen. Data for the rad50 strain (AID 155);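 note: 0% = growth of vehicle-only cultures of the same strain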
EXPERIMENTAL_CONDITIONS: S. cerevisiae rad50 strain growth inhibition; at 50.0 µM; hits give high values
About 79,000 compounds went through this panel and 15% of them were active in at least one assay; those are over-represented in the sample as a whole. Active and inactive are the calls of the source. Cut-off read from the data, not from the text of the source: active = growth inhibition above about 70%; inactive = the rest.
Provide the recorded growth inhibition for the entries that follow.

Look up growth inhibition for this molecule: Cc1ccc(NC(=O)/C(CC2N=c3c(ccc4c(O)c5ccccc5c(O)c34)=NC2O)=N/NC(C)(C)C)cc1 (stereo unspecified)
77.6% (active)

Then what about the molecule c1ccc2c(c1)sc1c3cnccc3ccc21 ?
94.3% (active)

Then what about the molecule CCN(CC)CCN(C)CCc1ccc(Br)cc1 ?
31.8% (inactive)

Then what about the molecule CCCOC(=O)C(F)C(Br)C(=O)OCCC (stereo unspecified) ?
89.8% (active)

Then what about the molecule COC1CCC(O)C(/C=C/[N+](=O)[O-])C1 (stereo unspecified) ?
98.7% (active)

Then what about the molecule COC(=O)C1(C)CCc2c(ccc3ccccc23)C1=O (stereo unspecified) ?
39.9% (inactive)

====

MEASUREMENT_DESCRIPTION: NCI Yeast Anticancer Drug Screen. Data for the bub3 strain (AID 167)
EXPERIMENTAL_CONDITIONS: S. cerevisiae bub3 mutant strain, at 50.0 µM, hits give high values
Compounds without any hit were thinned out: in the full panel of roughly 79,000, 15% have a hit.
Provide the recorded growth inhibition for the entries that follow.
The reply should contain only the number, in %.

Look up growth inhibition for this compound: Clc1ccc2c(c1)N(CCCN1CCCC13CCCCC3)c1ccccc1S2
-0.55

Then what about the compound O=[N+]([O-])c1cccc2nc3ccccc3c(NCCCn3ccnc3[N+](=O)[O-])c12 ?
58.4

Then what about the compound O=C1c2ccccc2C(=O)N1CCCC(=O)n1cc(F)c(=O)[nH]c1=O ?
46.5

Then what about the compound Cc1ccccc1N=Cc1cc(Cl)ccc1O ?
42

Then what about the compound COc1ccc(C(=O)c2ccccc2C(=O)c2ccccc2OC)cc1 ?
39.5

Then what about the compound O=C1NC(SSC2=NNC3(C(=O)N2)c2ccccc2-c2ccccc23)=NNC12c1ccccc1-c1ccccc12 ?
86.5

Then what about the compound COc1c(O)c(C=O)c(Br)c(C=O)c1O ?
98.9

Then what about the compound COc1cc2cc3c4cc(OC)c(OC)cc4cc[n+]3c(C)c2cc1OC ?
79.8

Then what about the compound COc1cccc2c1C(=O)c1c(O)c3c(c(O)c1C2=O)CC(O)(C(O)CO)CC3OC1CC(N2CCOCC2)C(O)C(C)O1 (configuration not stated) ?
93.5

Then what about the compound COc1ccc([N+](=O)[O-])c2c(NCCCN(C)C)c3ccccc3nc12 ?
-29

Then what about the compound S=C1SCN(C2CCCCC2)CN1C1CCCCC1 ?
82.8

Then what about the compound CN(C)CCNC(=O)c1cccc2cc([N+](=O)[O-])ccc12 ?
82.8

Then what about the compound OC(/C=C/c1ccccc1)(Cc1cc(-c2ccccc2)n[nH]1)c1ccccc1 (configuration not stated) ?
99.2

Then what about the compound CCOC(=O)C#Cc1ccc([N+](=O)[O-])cc1 ?
95.5

Then what about the compound Cc1cc2cc3cc(C)c(N)cc3nc2cc1N ?
77.8

Then what about the compound Clc1ccc(NCNC2Nc3ccccc3N2)cc1Cl ?
10.2

Then what about the compound CC[n+]1oc(C(=O)c2ccc(Cl)cc2)c(-c2ccccc2)c1-c1ccccc1.[Cl][Fe]([Cl])([Cl])[Cl] ?
67.5

Then what about the compound CNCCCNc1c2ccccc2nc2cccc([N+](=O)[O-])c12 ?
85.8

Then what about the compound c1ccc2c(c1)sc1c3cnccc3ccc21 ?
44.9

Then what about the compound CC(C)/C(Cl)=N\OC(=O)Nc1ccc(F)cc1F ?
82.1

Then what about the compound CN(C)[C@@H]1C(=O)C(C(N)=O)=C(O)[C@@]2(O)C(=O)C3=C(O)c4c(O)cccc4C[C@H]3C[C@@H]12 ?
89

Then what about the compound COc1ccc(C(=O)Oc2ccccc2Br)cc1 ?
32.4
